- Tested on: Escherichia coli
- assay_notes: Antibacterial activity against Escherichia coli ATCC 25922 at 50 to 100 ug/ml by cup-plate method
- Format: functional
readout_label: Activity (%)

O=C1C(Cl)C(c2cccc([N+](=O)[O-])c2)N1c1ccc(-n2c(Cc3ccccc3Nc3c(Cl)cccc3Cl)nc3ccc(Br)cc3c2=O)cc1 (centres undefined) :: 32.65
CCN(CC)c1ccc(C2C(Cl)C(=O)N2c2ccc(-n3c(Cc4ccccc4Nc4c(Cl)cccc4Cl)nc4ccc(Br)cc4c3=O)cc2)c(O)c1 (centres undefined) :: 0
O=c1c2cc(Br)ccc2nc(Cc2ccccc2Nc2c(Cl)cccc2Cl)n1-c1ccc(/N=C/c2cccc([N+](=O)[O-])c2)cc1 :: 28.39
COc1cc(/C=N/c2ccc(-n3c(Cc4ccccc4Nc4c(Cl)cccc4Cl)nc4ccc(Br)cc4c3=O)cc2)cc(OC)c1OC :: 50
